Give composite z-score for every item shown.
- protocol.details: binders of probe aHhip on microarray, primary screen, stem cell growth factor project, biochemical, small-molecule microarray, fluorescence 635/667 (AID 1087);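 further: score merges spot fluorescence at 667nm with spot signal to noise ratio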
- setup.conditions: higher = more signal

Known composite z-score results, listed for orientation:
CC(C)C(=C=CC[C@@H](O)c1ccccc1OCCO)C[C@@H](O)c1cc(Cl)cc(Cl)c1O -0.0296
CC(C)(C)OC(=O)CC[C@]1(C(N)=O)N=C(c2ccc(OCCCO)cc2)O[C@H]1c1ccccc1CN=[N+]=[N-] 0.0722
CCOC(=O)C[C@H]1[C@H](OC(=O)Cc2ccc3c(c2)OCO3)[C@@H](NC(=O)c2ccccc2)c2cc(OCCCO)ccc2N1C(=O)Cc1ccc(OC)cc1 -0.261

Let's switch to this compound now.
Given item CC(C)(C)OC(=O)CC[C@]1(C(=O)N2CCOCC2)N=C(c2ccc(OCCCO)cc2)O[C@H]1c1ccccc1CN=[N+]=[N-] , the value recorded as its composite z-score is 0.113

###

- System: Chordin-like protein 2 (CHRDL2)
- protocol.details: CHRDL2 small-molecule binders, primary screen, biochemical, small-molecule microarray, 635 nm fluorescence (AID 1126);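 further: printed compound slides probed with Chrdl2 protein at 4 µg/mL for 1 h at 4 C; score merges 667 nm emission intensity with signal to noise over three replicate slides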
- setup.conditions: small-molecule microarray binding, fluorescence 635 nm; higher = more signal
Assign y to entries whose composite z-score meets or exceeds -0.5; assign n to the rest.

Please review the entries below; each comes with its answer.
compound	tested.on	assigned.class
COCCOC(=O)N1C(=O)[C@@]2(c3ccccc31)[C@H](C(N)=O)[C@H]1C(=O)O[C@H](c3ccccc3)[C@H](c3ccccc3)N1[C@@H]2c1ccc(OCCO)cc1	Chordin-like protein 2 (CHRDL2)	y
CC(C)N1CC=CC23O[C@@H]4C=CCCOC(=O)C4[C@H]2C(=O)N(CCCCCO)[C@@H]3C1=O (some centres not stated)	Chordin-like protein 2 (CHRDL2)	n

Query: Tell me whether composite z-score is at least -0.5 here: C=CCC(OC(C)=O)[C@@H]1[C@@H](N(Cc2ccc(-c3cccc(C(F)(F)F)c3)o2)C(=O)c2cccc3ccccc23)c2cc(OCCCO)ccc2N1C(=O)c1ccc2ccccc2n1 (some centres not stated)
Reply: y

Query: Tell me whether composite z-score is at least -0.5 here: CCOC(=O)C[C@H]1[C@H](OC(=O)c2ccc(C(=O)c3ccccc3)cc2)[C@@H](NC(=O)c2ccc3ccccc3c2)c2cc(OCCCO)ccc2N1C(=O)c1ccc2ccccc2n1
Reply: y

Query: Tell me whether composite z-score is at least -0.5 here: C=CCOC(=O)[C@H]1[C@@H]2C(=O)O[C@@H](c3ccccc3)[C@@H](c3ccccc3)N2[C@@H](c2ccc(OCCOC(=O)[C@H]3C[C@H]4C(=O)NCC(=O)N4[C@H]3c3ccc(O)cc3)cc2)[C@]12C(=O)Nc1ccc(I)cc12
Reply: y

Query: Tell me whether composite z-score is at least -0.5 here: O=C1O[C@H](c2ccccc2)[C@H](c2ccccc2)N2[C@H]1[C@@H](C(=O)NC[C@H](O)c1ccccc1)[C@]1(C(=O)Nc3ccc(C#CCCO)cc31)[C@H]2c1ccccc1OCCO
Reply: y

###

Give composite z-score for every item shown.
- tested.on: Follistatin (Homo sapiens) (UniProt P19883)
- Sequence (P19883 whole entry, looked up): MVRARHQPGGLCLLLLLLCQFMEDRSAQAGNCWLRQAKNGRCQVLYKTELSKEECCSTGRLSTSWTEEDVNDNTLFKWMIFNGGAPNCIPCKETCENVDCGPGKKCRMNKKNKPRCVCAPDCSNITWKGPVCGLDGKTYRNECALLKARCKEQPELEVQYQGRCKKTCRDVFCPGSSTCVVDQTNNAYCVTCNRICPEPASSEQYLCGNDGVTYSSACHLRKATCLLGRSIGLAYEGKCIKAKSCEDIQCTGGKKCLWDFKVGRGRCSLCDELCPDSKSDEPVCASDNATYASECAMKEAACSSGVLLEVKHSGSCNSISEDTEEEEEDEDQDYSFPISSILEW
- protocol.details: follistatin binders on small-molecule microarrays, primary screen, biochemical, small-molecule microarray, 635/667 nm fluorescence (AID 1132)
- setup.conditions: FST binding, 635 nm fluorescence, higher = more signal
Numbers only.

Known composite z-score results, listed for orientation:
compound	assay.value
CC(C)C[C@H]1NC(=O)[C@@]23C(=O)N[C@@H](Cc4ccccc4)C2[C@H](C)[C@@]2(C)O[C@H]2C3/C=C/C/C=C\CNC(=O)[C@@H]2CCCN2C1=O (some centres undefined)	0.614
C=CC[C@@]1(C(=O)O)N=C(c2ccc(OCCCO)cc2)O[C@@H]1c1ccccc1CN=[N+]=[N-]	0.939
C=CCNC(=O)[C@@H]1[C@H]2C(=O)O[C@H](c3ccccc3)[C@H](c3ccccc3)N2[C@H](c2ccc(O)cc2)[C@@]12C(=O)Nc1ccc(C#CC3(O)CCCCCC3)cc12	0.726

Let's switch to this compound now.
Given item CC(C)CNC(=O)[C@@H]1c2ccccc2C(=O)N(CC23CC4CC(CC(C4)C2)C3)[C@H]1c1ccc(CO)cc1 , the value recorded as its composite z-score is 0.466

###

- protocol.details: mitochondrial membrane potential change in A549 cells, profiling panel, cell-based, JC-1 fluorescence, basal, 24 h, 100 nL (AID 1138);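 further: A549 lung adenocarcinoma cells under basal conditions with no added stimulus; test concentration not given here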
- setup.conditions: higher = more signal
Give z-score for every item shown.
Numbers only.

Known z-score results, listed for orientation:
compound	observable	assay.value
COc1ccc(CC[C@H](O)c2cccc(OCC(=O)OC(C)(C)C)c2)cc1	z-score	0.383
C=CCC(OC(C)=O)[C@@H]1[C@@H](N(Cc2cccc3ccccc23)C(=O)c2ccc(C)cc2)c2cc(OCCCO)ccc2N1C(=O)c1ccc2ccccc2n1 (stereo partly drawn)	z-score	0.644

Let's switch to this compound now.
Given item COCCOC(=O)N1C(=O)[C@@]2(c3cc(C#CCCO)ccc31)[C@H](c1ccc(O)cc1)N1[C@H](c3ccccc3)[C@H](c3ccccc3)OC(=O)[C@H]1[C@@H]2C(=O)N1CCc2cc(OC)c(OC)cc2C1 , the value recorded as its z-score is 0.257

###

Give composite z-score for every item shown.
- tested.on: Albumin (Bos taurus)
- protocol.details: bovine serum albumin binders on microarray, profiling panel, artefact control for SMM control protein annotation, biochemical, small-molecule microarray, Alexa647 label, 635/667 nm fluorescence (AID 1118);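 further: score merges 667 nm emission intensity and signal-to-noise per printed compound spot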
- setup.conditions: BSA-A647 binding, fluorescence 635 nm, higher = more signal

Known composite z-score results, listed for orientation:
molecule	composite z-score
CCCC=C(CCC)[C@@H](NC(=O)c1ccccc1)c1ccc(C(=O)OC)cc1	-0.122
C=CCC(OC(C)=O)[C@@H]1[C@@H](N(Cc2ccc(-c3cccc(C(F)(F)F)c3)o2)C(=O)c2cccc3ccccc23)c2cc(OCCCO)ccc2N1C(=O)c1ccc2ccccc2n1 (stereo not given in full)	-0.197
COc1ccc(NC(=O)O[C@H]2[C@H](OC(=O)Nc3ccc4c(c3)OCO4)[C@H](OC(=O)Nc3ccc4c(c3)OCO4)[C@@H](OC)O[C@@H]2CO)cc1	-0.0357
CCCC[C@@H](O)C1=C(COC)Cn2c(=O)n(-c3ccccc3)c(=O)n2[C@H]1CO	-0.0338

# return composite z-score for each item in the list
1. COC(=O)[C@@]1(Cc2ccccc2CN=[N+]=[N-])COC(c2ccc(OCCCO)cc2)=N1
2. [N-]=[N+]=NCc1ccccc1[C@H]1OC(c2ccc(OCCCO)cc2)=N[C@@]1(Cc1ccccc1)C(=O)N1CCOCC1
3. C=C(CC1([C@@H](NP(=O)(c2ccccc2)c2ccccc2)[C@H]2C[C@@H]2CCN(C(=O)OCC)S(=O)(=O)c2ccc(C)cc2)CC1)c1ccccc1
4. C=CCOC(=O)[C@H]1[C@@H]2C(=O)O[C@@H](c3ccccc3)[C@@H](c3ccccc3)N2[C@@H](c2ccc(OCCOC(=O)[C@H]3C[C@H]4C(=O)NCC(=O)N4[C@H]3c3ccc(O)cc3)cc2)[C@]12C(=O)Nc1ccc(I)cc12
5. C=CCNC(=O)[C@H]1[C@@H]2C(=O)O[C@@H](c3ccccc3)[C@@H](c3ccccc3)N2[C@@H](c2ccc(O)cc2)[C@]12C(=O)Nc1ccc(C#CC3=CCCCC3)cc12

Reply:
1: 0.426; 2: 0.912; 3: 0.963; 4: 0.163; 5: 0.135

# return composite z-score for each item in the list
1. CN1C(=O)C2C(C1=O)C1C=C(c3ccc(CO)cc3)C2C(c2cccs2)N1C (stereo not given)
2. CCN(CC)c1ccc(N2CC=CC34O[C@@H]5C=CCOC(=O)[C@@H]5[C@H]3C(=O)N(CCO)[C@@H]4C2=O)cc1 (stereo not given in full)
3. CC(=O)n1cc(C(O)C2C=CC3C(=O)N(c4ccccc4)C(=O)C3N2Nc2ccccc2F)c2ccccc21 (stereo not given)
4. CN(C)CCCNC(=O)[C@@H]1c2ccccc2C(=O)N(C2Cc3ccccc3C2)[C@H]1c1ccc(CO)cc1
5. CN(C)CCCC[C@@H]1NC(=O)[C@@H]2C[C@H](C(=O)NCCCCCCNC(=O)CS)[C@H](c3cccc(OCCO)c3)N2C1=O
6. CCCCC(=C=CC[C@@H](O)c1ccc(OCCO)cc1)C[C@@H](O)c1ccccn1

Reply:
[0.935, -0.869, 0.332, 0.274, -0.361, 0.681]

###

- protocol.details: fission yeast growth modulation, primary screen, strain 972, OD600, 24 h, no modulator (AID 1090);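 further: basal condition with compound alone and no growth modifier present; test concentration not given here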
- setup.conditions: S. pombe 972 growth, higher = more signal, called active from +8 up or from −8 down
observable: z-score
One number for each entry.

Known z-score results, listed for orientation:
compound	z-score
CCCCC(O)C1C=CC2C(=O)N(C)C(=O)C2N1Nc1ccccc1 (centres undefined)	0.555
CCCC=C(CCC)[C@@H](NC(=O)c1ccccc1)c1ccc(C(=O)OC)cc1	-1.5
C=C(/C(=C/C[C@H](OC(=O)c1ccncc1)c1ccccc1OCCO)c1cc(C(=O)OC)ccc1OC)C(C)C	0.115

# return z-score for each item in the list
1. CN(C)CCCC[C@@H]1NC(=O)[C@H]2C[C@@H](C(=O)O)[C@@H](c3cccc(OCCO)c3)N2C1=O
2. CN(C)CCCNC(=O)[C@@H]1c2ccccc2C(=O)N(C2Cc3ccccc3C2)[C@H]1c1ccc(CO)cc1
3. COC(=O)[C@@]1(Cc2ccc(OC)cc2)[C@H]2c3cc(C(=O)N4CCCC4)n(CCc4ccc(OC)c(Br)c4)c3C[C@H]2CN1C(=O)c1ccccc1
4. CC(C)C(=C=CC[C@@H](O)c1ccc(OCCO)cc1)CCO
5. Cc1ccc(F)cc1S(=O)(=O)N[C@@H]1CCN(Cc2ccc3[nH]ccc3c2)C1
6. O=C(NCC(F)(F)F)[C@@H]1c2ccccc2C(=O)N(CC23CC4CC(CC(C4)C2)C3)[C@H]1c1ccc(CO)cc1

Reply:
1: -1.36; 2: -0.271; 3: 0.111; 4: -1.32; 5: -2.97; 6: -1.94
